molecular target: CDK19 (Homo sapiens, UniProt Q9BWU1); construct: made in house; host or cells: E. coli BL21-derived host (T7 phage display) or HEK-293 cells; assay: Kinase competition binding assay (Kd, qPCR readout), CDK19; settings: in vitro binding; 11-point 3-fold dilution series; read-out: pKd (CDK19) (converted)
Sequence (Q9BWU1 whole entry): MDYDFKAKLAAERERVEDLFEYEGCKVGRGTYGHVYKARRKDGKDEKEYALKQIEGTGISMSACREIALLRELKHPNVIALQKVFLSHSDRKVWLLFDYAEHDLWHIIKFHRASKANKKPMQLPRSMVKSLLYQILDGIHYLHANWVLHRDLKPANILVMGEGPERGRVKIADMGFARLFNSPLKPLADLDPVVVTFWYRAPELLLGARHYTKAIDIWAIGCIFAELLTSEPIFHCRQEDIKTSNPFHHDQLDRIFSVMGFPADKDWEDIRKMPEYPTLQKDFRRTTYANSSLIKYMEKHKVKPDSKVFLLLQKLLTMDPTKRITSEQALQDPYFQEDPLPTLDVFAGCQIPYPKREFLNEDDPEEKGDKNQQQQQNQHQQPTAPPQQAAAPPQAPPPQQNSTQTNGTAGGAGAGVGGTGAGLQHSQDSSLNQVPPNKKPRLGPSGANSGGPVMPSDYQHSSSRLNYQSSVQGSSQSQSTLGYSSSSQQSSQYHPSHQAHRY
The entries below are paired with their reported Kd.
Recorded endpoint: Kd (nM)

>>> result_number("O=C(NC1CCN(c2snc3ccccc23)CC1)c1cn(Cc2cnccn2)cn1")
79.4
>>> result_number("CN(C)C(=O)Cn1cnc(C(=O)NC2CCN(c3snc4ccc(F)cc34)CC2)c1")
316
>>> result_number("CN(C)C(=O)Cn1cnc(C(=O)NC2CCN(c3snc4ccccc34)CC2)c1")
200
>>> result_number("O=C(NC1CCN(c2snc3ccc(F)cc23)CC1)c1cn(Cc2cnccn2)cn1")
20
